test_system: PIK3R1-N SH2 domain (Homo sapiens)
Construct: thioredoxin; made in house; host or cells: E. coli BL21(DE3)pLysS
Sequence (P27986 333-428 limits assumed): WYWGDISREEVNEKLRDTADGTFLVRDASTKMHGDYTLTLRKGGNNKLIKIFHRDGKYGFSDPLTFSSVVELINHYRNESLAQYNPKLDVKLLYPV
protocol_description: biochemical
Assay type: binding
test_parameters: protein PIK3R1-N; FP, high-confidence ErbB interactions; mean of replicate hits
Residues, ends and D or L forms follow the SMILES beside them.
readout: Kd (nM)
Give just the numeric value; nM need not be written.

Would you please look over these solved cases?
molecule	quantity_unit	Kd
CSCC[C@H](NC(=O)[C@@H]1CCCN1C(=O)[C@@H](NC(=O)[C@H](Cc1ccc(OP(=O)(O)O)cc1)NC(=O)[C@H](C)NC(=O)[C@@H]1CCCN1C(=O)[C@@H]1CCCN1C(=O)[C@@H]1CCCN1)[C@@H](C)O)C(=O)N[C@@H](CO)C(=O)NCC(=O)N[C@@H](CC(N)=O)C(=O)N[C@@H](CCC(N)=O)C(=O)N[C@@H](CC(=O)O)C(=O)O [ErbB4 1056 13-mer] (HELM PEPTIDE1{P.P.P.A.[O=C([C@H](Cc1ccc(OP(=O)(O)O)cc1)N[*:1])[*:2]].T.P.M.S.G.N.Q.D}$$$$V2.0)	nM	2570
CC(C)C[C@H](NC(=O)[C@H](Cc1ccc(O)cc1)NC(=O)[C@H](CC(C)C)NC(=O)[C@@H]1CCCN1C(=O)[C@H](CCC(=O)O)NC(=O)[C@H](CC(N)=O)NC(=O)[C@@H](NC(=O)[C@H](Cc1ccc(OP(=O)(O)O)cc1)NC(=O)[C@H](CCC(=O)O)NC(=O)[C@H](CC(=O)O)NC(=O)[C@H](CCC(=O)O)NC(=O)[C@H](C)N)C(C)C)C(=O)N[C@@H](CC(=O)O)C(=O)O [ErbB4 1202 13-mer] (HELM PEPTIDE1{A.E.D.E.[O=C([C@H](Cc1ccc(OP(=O)(O)O)cc1)N[*:1])[*:2]].V.N.E.P.L.Y.L.D}$$$$V2.0)	nM	1350

From here, focus on the item given below.
// sample CSCC[C@H](NC(=O)[C@H](CCC(=O)O)NC(=O)[C@H](CCC(=O)O)NC(=O)[C@H](Cc1ccc(OP(=O)(O)O)cc1)NC(=O)CNC(=O)[C@H](CCC(N)=O)NC(=O)[C@H](CCC(=O)O)NC(=O)[C@@H](N)CO)C(=O)N[C@@H](CCCNC(=N)N)C(=O)N[C@@H](C)C(=O)N[C@@H](Cc1ccccc1)C(=O)N[C@@H](CCC(N)=O)C(=O)N[C@@H](CC(=O)O)C(=O)O [ErbB3 1289 13-mer] (HELM PEPTIDE1{S.E.Q.G.[O=C([C@H](Cc1ccc(OP(=O)(O)O)cc1)N[*:1])[*:2]].E.E.M.R.A.F.Q.D}$$$$V2.0) , its Kd was 250
